Molecular target: human ether-à-go-go-related gene (hERG) potassium channel (human, UniProt Q12809)
Sequence (Q12809 whole entry, looked up): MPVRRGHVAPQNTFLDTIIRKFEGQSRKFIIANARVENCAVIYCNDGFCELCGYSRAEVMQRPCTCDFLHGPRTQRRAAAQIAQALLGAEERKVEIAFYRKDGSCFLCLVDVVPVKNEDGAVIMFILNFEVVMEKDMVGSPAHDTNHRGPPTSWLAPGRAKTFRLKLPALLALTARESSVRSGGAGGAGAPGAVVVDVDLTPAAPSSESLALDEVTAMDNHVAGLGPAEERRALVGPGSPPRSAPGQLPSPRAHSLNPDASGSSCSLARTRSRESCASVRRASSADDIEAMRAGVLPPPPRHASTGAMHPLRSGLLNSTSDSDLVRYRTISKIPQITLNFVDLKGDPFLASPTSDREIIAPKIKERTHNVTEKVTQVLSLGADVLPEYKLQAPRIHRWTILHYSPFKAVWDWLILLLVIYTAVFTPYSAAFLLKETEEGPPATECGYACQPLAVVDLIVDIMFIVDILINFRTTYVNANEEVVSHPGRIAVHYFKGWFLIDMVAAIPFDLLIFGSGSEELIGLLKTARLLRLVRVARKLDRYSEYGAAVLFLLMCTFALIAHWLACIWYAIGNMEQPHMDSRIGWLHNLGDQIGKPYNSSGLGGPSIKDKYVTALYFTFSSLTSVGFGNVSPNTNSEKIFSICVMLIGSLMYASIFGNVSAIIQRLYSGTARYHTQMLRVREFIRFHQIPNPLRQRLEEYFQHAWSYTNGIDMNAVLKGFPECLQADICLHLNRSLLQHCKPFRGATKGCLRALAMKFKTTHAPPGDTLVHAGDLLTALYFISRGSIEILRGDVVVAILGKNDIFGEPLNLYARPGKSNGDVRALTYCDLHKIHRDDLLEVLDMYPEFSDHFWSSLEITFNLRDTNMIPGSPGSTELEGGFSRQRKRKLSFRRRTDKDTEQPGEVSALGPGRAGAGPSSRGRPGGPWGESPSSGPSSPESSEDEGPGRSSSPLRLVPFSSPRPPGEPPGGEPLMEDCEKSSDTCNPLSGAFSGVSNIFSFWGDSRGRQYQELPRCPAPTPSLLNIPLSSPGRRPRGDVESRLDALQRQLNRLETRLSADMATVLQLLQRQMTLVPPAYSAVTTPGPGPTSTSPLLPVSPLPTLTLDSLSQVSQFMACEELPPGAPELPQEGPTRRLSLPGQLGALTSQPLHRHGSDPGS
Test: primary screen, population patch clamp on CHO cells stably expressing hERG; higher = less effect of the substance
The whole screen tested about 310,000 compounds, of which about 14,000 (4.5%) showed an effect of 50% or more. Effects have a minus sign here. The list comes from a sample in which strong results are over-represented; it also holds close analogues and randomly drawn compounds.
quantity.kind: hERG current change (%, negative = inhibition) at 10uM (%)

In [3]: df
Out[3]:
                                   compound  numeric_result
0                  Cc1ccc(C)n1NC(=O)c1ccco1            14.8
1  COc1c(C)cc(C(=O)C2CCCN(Cc3cccc(O)c3)C2)cc1C (centres unmarked)           -23.9
2  CCN(CC)S(=O)(=O)c1cccc(-c2nnc(SCC(=O)NC3CCCC3)n2N)c1              19
3  COc1cc(/C=N/NC(=O)COc2ccccc2[N+](=O)[O-])ccc1OC(=O)c1ccco1           -1.29
4    CCCn1c(C)cc(C(=O)Cn2nnc3ccccc3c2=O)c1C           -34.7

* * *

Molecular target: human ether-à-go-go-related gene (hERG) potassium channel (human);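 further: peak tail current of the secondary pulse compared with the same well before compound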
Experiment: primary screen, population patch clamp on CHO cells stably expressing hERG; higher = less effect of the substance
Hit rate of the full screen: of about 310,000 compounds, about 14,000 (4.5%) showed an effect of 50% or more. Effects have a minus sign here. Only a selection was taken, and strong results are over-represented in it overall.
Measured hERG current change (%, negative = inhibition) at 10uM accompanies every entry in the list below.
quantity.kind: hERG current change (%, negative = inhibition) at 10uM (%)

In [3]: df
Out[3]:
                                    compound  numeric_result
 0  CCOc1ccc(CN(C)C(=O)NNC(=O)c2ccc(C)cc2)cc1OC            16.8
 1       O=C(COc1cccc(Cl)c1)Nc1ccc2c(c1)CCC2           -3.73
 2  CCOc1ccc(CN(C)CC(=O)Nc2ccc3c(c2)CCC3)cc1OC             -39
 3  COc1ccc(NC(=O)C2CCN(C(=O)c3cccs3)CC2)cc1           -12.4
 4    c1ccc(-c2[nH]ncc2-c2nc3ccccc3[nH]2)cc1             -11
 5  COc1ccc(C(=O)N2CCC(C(=O)Nc3ccc(OC)c(OC)c3)CC2)cc1            1.37
 6  CCOc1ccc(CN(C)CC(=O)Nc2cccc3ccccc23)cc1OC.O=C(O)C(=O)O           -16.5
 7  Cc1ccc(CC(=O)N2CC(C)OC(C)C2)cc1 (stereo not drawn)            9.85
 8  COC(=O)c1ccc(NC(=O)C2CCN(C(=O)c3cc(OC)c(OC)c(OC)c3)CC2)cc1            6.73
 9  Cc1cc(NC(=S)N(CCN2CCCCC2)Cc2ccco2)ccc1Cl           -55.3
10  CCN(CC)S(=O)(=O)c1ccc(NS(=O)(=O)c2cccc(C)c2)cc1           -20.4
11   Cc1ccc(NC(=S)N(CCN2CCCCC2)Cc2ccco2)cc1C           -80.3
12    COc1ccc(C(=O)N2CCC(C(=O)NC3CC3)CC2)cc1            4.25
13  COc1ccc(CCN(C)CC(=O)Nc2c(C)cc(C)cc2C)cc1OC.Cl            4.26
14        CCOc1ccc(C(=O)c2nc3c(n2O)CCCC3)cc1            18.5
15  CC1CN(c2nc(Nc3ccccc3)nc(N)c2[N+](=O)[O-])CC(C)O1 (stereo not drawn)           -22.2
16  COc1ccc(CC(=O)Nc2cccc(-c3nnc(-c4cccc(C)c4)o3)c2)cc1OC            11.3
17  Cc1cccc(C)c1NC(=S)N(CCN1CCCCCC1)Cc1ccco1           -34.9
18    CCOc1ccc(CN(C)CC(=O)Nc2cccc(C)c2)cc1OC             -77
19  COc1ccc(CCN(C)CCC(=O)Nc2cccc(C)c2)cc1OC.Cl           -65.8
20     COc1ccc(CCN(C)C(=S)Nc2cccc(C)c2)cc1OC            5.19

* * *

Biological target: human ether-à-go-go-related gene (hERG) potassium channel (human);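 further: peak tail current of the secondary pulse compared with the same well before compound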
Experiment: primary screen, population patch clamp on CHO cells stably expressing hERG; higher = less effect of the substance
Screen size: about 310,000 compounds; about 14,000 (4.5%) showed an effect of 50% or more. Effects have a minus sign here. The entries come from a sample that favours strong results as a whole.
Measured hERG current change (%, negative = inhibition) at 10uM accompanies every entry in the list below.
quantity.kind: hERG current change (%, negative = inhibition) at 10uM (%)

>>> print(df.to_string())
                                    molecule                                 tested_on  numeric_result
 0  CSc1nc2ccc(NS(=O)(=O)c3ccc(CNC(C)=O)cc3)cc2s1  human ether-à-go-go-related gene (hERG) potassium channel (human)           -0.24
 1            COC(=O)CSc1nsc(SCC(=O)OC)c1C#N  human ether-à-go-go-related gene (hERG) potassium channel (human)            5.34
 2          CCOC(=O)CSc1nc(-c2ccncc2)ccc1C#N  human ether-à-go-go-related gene (hERG) potassium channel (human)           -61.6
 3                   Cn1ncnc1SCc1cn2cccnc2n1  human ether-à-go-go-related gene (hERG) potassium channel (human)            14.2
 4   CCOC(=O)CSc1nc(-c2ccc3c(c2)OCO3)ccc1C#N  human ether-à-go-go-related gene (hERG) potassium channel (human)             7.3
 5    CCOC(=O)CC(=O)CSc1nc(-c2cccnc2)ccc1C#N  human ether-à-go-go-related gene (hERG) potassium channel (human)            17.5
 6          CCOC(=O)CSc1nsc(SCC(=O)OCC)c1C#N  human ether-à-go-go-related gene (hERG) potassium channel (human)           -55.7
 7       O=S(=O)(c1cccs1)N1CCN(Cc2ccccc2)CC1  human ether-à-go-go-related gene (hERG) potassium channel (human)             -14
 8  CCC1(C)NC(=O)N(CC(=O)N2CCC(Cc3ccccc3)CC2)C1=O (centres unmarked)  human ether-à-go-go-related gene (hERG) potassium channel (human)            3.65
 9              CC(=O)CSc1nsc(SCC(C)=O)c1C#N  human ether-à-go-go-related gene (hERG) potassium channel (human)            17.2
10             CCn1c(COc2ccccc2OC)nc2ccccc21  human ether-à-go-go-related gene (hERG) potassium channel (human)            2.28

* * *

Biological target: human ether-à-go-go-related gene (hERG) potassium channel (human);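 further: peak tail current of the secondary pulse compared with the same well before compound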
Test: primary screen, population patch clamp on CHO cells stably expressing hERG; higher = less effect of the substance
About 14,000 (4.5%) of roughly 310,000 compounds showed an effect of 50% or more. The effect is printed as a negative number. Many of the other results were omitted from the sample, so strong results are more common in it than they were.
Measured hERG current change (%, negative = inhibition) at 10uM accompanies every entry in the list below.
quantity.kind: hERG current change (%, negative = inhibition) at 10uM (%)

>>> print(df.to_string())
                                   compound  unit_descriptor  numeric_result
0  CC(NCc1ccc(S(N)(=O)=O)cc1)C(=O)Nc1ccc([N+](=O)[O-])cc1Cl (stereo not shown)                %           -50.5
1  CS(=O)(=O)c1ccc(C(=O)NCCN2C(=O)S/C(=C\c3cccnc3)C2=O)cc1[N+](=O)[O-]                %            1.32
2  CCOc1ccc(N2CC(C(=O)NCCN3C(=O)S/C(=C\c4cccnc4)C3=O)CC2=O)cc1 (stereo not shown)                %          -0.149
3    O=C(CCl)NCCN1C(=O)S/C(=C\c2cccnc2)C1=O                %            26.1

* * *

Measured hERG current change (%, negative = inhibition) at 10uM accompanies every entry in the list below.
Target: human ether-à-go-go-related gene (hERG) potassium channel (human);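 further: peak tail current of the secondary pulse compared with the same well before compound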
Assay: primary screen, population patch clamp on CHO cells stably expressing hERG; higher = less effect of the substance
About 14,000 (4.5%) of roughly 310,000 compounds showed an effect of 50% or more. Effects have a minus sign here. Shown is part of a subset that was picked to be rich in strong results.
quantity.kind: hERG current change (%, negative = inhibition) at 10uM (%)

                                    compound                                 tested_on  numeric_result
 0                  CNc1nc(N(C)C)nc(N(C)C)n1  human ether-à-go-go-related gene (hERG) potassium channel (human)           -7.71
 1   COCCCn1c(SCC(=O)NC2CCCCC2)nc2ccccc2c1=O  human ether-à-go-go-related gene (hERG) potassium channel (human)           -16.9
 2            CN=C1c2cc3cc(OC)ccc3n2CCN1C.Cl  human ether-à-go-go-related gene (hERG) potassium channel (human)             -53
 3  COCCCn1c(=N)c(C(=O)NC2CCCCC2)cc2c(=O)n3ccccc3nc21  human ether-à-go-go-related gene (hERG) potassium channel (human)           -78.8
 4            CCOCCn1c(COc2ccccc2)nc2ccccc21  human ether-à-go-go-related gene (hERG) potassium channel (human)           -33.6
 5  COc1ccc(CCn2c(=N)c(S(=O)(=O)c3ccccc3)cc3c(=O)n4ccccc4nc32)cc1  human ether-à-go-go-related gene (hERG) potassium channel (human)            10.9
 6  Cc1csc(C(C#N)C(=O)c2ccncc2)n1 (stereo not drawn)  human ether-à-go-go-related gene (hERG) potassium channel (human)            19.2
 7  COC(=O)C(C)n1cnc2c(nnn2Cc2ccc(Cl)cc2)c1=O (stereo not drawn)  human ether-à-go-go-related gene (hERG) potassium channel (human)           -16.4
 8           COc1ccc2c(c1)cc1n2CCN=C1NCCO.Cl  human ether-à-go-go-related gene (hERG) potassium channel (human)           -10.2
 9  Cc1cccc(-n2c(Cc3ccccc3)nnc2SCc2ccc([N+](=O)[O-])cc2)c1  human ether-à-go-go-related gene (hERG) potassium channel (human)           -37.6
10  COc1cccc(-n2c(Cc3cc(=O)[nH]c(=O)[nH]3)nnc2SCC(=O)N2CCCCCC2)c1  human ether-à-go-go-related gene (hERG) potassium channel (human)            0.34
11  O=C(N/N=C/c1ccc(-c2cccc(C(F)(F)F)c2)o1)c1ccccc1Br  human ether-à-go-go-related gene (hERG) potassium channel (human)            3.21
12  O=C(N/N=C/c1cc([N+](=O)[O-])cc([N+](=O)[O-])c1O)C(O)(c1ccccc1)c1ccccc1  human ether-à-go-go-related gene (hERG) potassium channel (human)           -4.37
13            O=C(NN=C1CCCCCCCCCCC1)c1cccnc1  human ether-à-go-go-related gene (hERG) potassium channel (human)            19.8
14      COc1ccc2ccccc2c1CN1CCN(Cc2ccccc2)CC1  human ether-à-go-go-related gene (hERG) potassium channel (human)           -2.66
15  CCOc1ccc(-n2c(COc3ccccc3)nnc2SCC(N)=O)cc1  human ether-à-go-go-related gene (hERG) potassium channel (human)           -13.8
16            O=C(NCc1ccncc1)Nc1cc(Cl)ccc1Cl  human ether-à-go-go-related gene (hERG) potassium channel (human)            -8.6
17        COc1ccc2c(c1)c(=O)cc(-c1ccccc1)n2C  human ether-à-go-go-related gene (hERG) potassium channel (human)          0.0751
18     Cc1ccc(-c2nnc(SCC(=O)Nc3nccs3)n2N)cc1  human ether-à-go-go-related gene (hERG) potassium channel (human)           -10.4
19  O=C(N/N=C/c1cc(Cl)cc([N+](=O)[O-])c1O)C(O)(c1ccccc1)c1ccccc1  human ether-à-go-go-related gene (hERG) potassium channel (human)             -53
20  CCc1ccc(-n2c(SCc3c(C)noc3C)nnc2-c2ccncc2)cc1  human ether-à-go-go-related gene (hERG) potassium channel (human)           -36.6
